- Measurement target: T1, Mouse EphA2 (Ecto) (Mouse, UniProt Q03145 26-538)
- T1 construct: extracellular domain; C-terminal polyHis; not shown: Fc fusion or C-terminal polyHis
- T1 sequence (Q03145 26-538): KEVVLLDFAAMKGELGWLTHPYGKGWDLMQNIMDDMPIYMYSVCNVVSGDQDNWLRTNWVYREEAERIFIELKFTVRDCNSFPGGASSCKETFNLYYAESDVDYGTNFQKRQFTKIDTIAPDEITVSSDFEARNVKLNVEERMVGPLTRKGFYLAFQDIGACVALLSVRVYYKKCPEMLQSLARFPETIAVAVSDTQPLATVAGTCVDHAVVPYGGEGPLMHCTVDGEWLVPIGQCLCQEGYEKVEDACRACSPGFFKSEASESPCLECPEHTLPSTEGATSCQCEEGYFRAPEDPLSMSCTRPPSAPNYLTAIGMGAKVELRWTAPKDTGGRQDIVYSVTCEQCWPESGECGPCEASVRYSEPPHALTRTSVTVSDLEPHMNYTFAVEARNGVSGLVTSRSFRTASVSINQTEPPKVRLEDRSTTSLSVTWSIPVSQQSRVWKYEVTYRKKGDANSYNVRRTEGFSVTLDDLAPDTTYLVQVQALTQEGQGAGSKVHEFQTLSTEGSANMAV
- Test details: FP competition; tracer Reference Compound C
Parameter: Ki (nM)
Return type: number; implicit unit nM.

Q: Tell me its Ki given ARDCPLVNPLCLHPGWTCAXXXXXXK (N-terminal acetyl; X at 20-25 = Sar (sarcosine); K26 = D-Lys; 3 Cys thioether-linked to TATA scaffold) [Bicycle Compound Number 68 (TATA scaffold), Ac-ARDCPLVNPLCLHPGWTCA-Sar6-(D-K)] as the entry.
Result: 166

Q: Give the reported value of Ki for this record: XXXXXXXXXXXARDCPLVNPLCLHPGWTC (N-terminal (β-Ala)-Sar10; 3 Cys thioether-linked to TATA scaffold) [Bicycle Compound Number 66 (BCY6099) (TATA scaffold), (β-Ala)-Sar10-ARDCPLVNPLCLHPGWTC]
Result: 57.6

Q: Given CPLVNPLCLHPGWSCRGQXXXXXXK (N-terminal acetyl; X at 19-24 = Sar; K25 = D-Lys; 3 Cys thioether-linked to TATA scaffold) [Bicycle Compound Number 91 (BCY6042) (TATA scaffold), Ac-CPLVNPLCLHPGWSCRGQ-Sar6-(D-K)] , respond with its Ki.
Result: 49.9

Q: Let me know recorded Ki for CPLVNPLCLHPGWTCLHGXXXXXXK (N-terminal acetyl; X at 19-24 = Sar; K25 = D-Lys; 3 Cys thioether-linked to TATA scaffold) [Bicycle Compound Number 77 (BCY6019) (TATA scaffold), Ac-CPLVNPLCLHPGWTCLHG-Sar6-(D-K)] , thanks.
Result: 48.2

Q: State its Ki: XXXXXXXXXXXACPLVNPLCLHPGWSCRGQ (N-terminal (β-Ala)-Sar10; 3 Cys thioether-linked to TATA scaffold) [Bicycle Compound Number 89 (TATA scaffold), (β-Ala)-Sar10-ACPLVNPLCLHPGWSCRGQ]
Result: 29.6

Origin of values: patent US11814447B2
